measured-quantity: melting point

compound COc1ccc(/C=C(/C(=O)N[C@@H]2c3cc4c(cc3[C@@H](c3cc(OC)c(OC)c(OC)c3)[C@H]3C(=O)OC[C@@H]32)OCO4)c2cc(OC)c(OC)c(OC)c2)c(F)c1 [Compound 3f] , melting point observed: 123 to 125 °C

compound COc1cc(/C=C(/C(=O)N[C@@H]2c3cc4c(cc3[C@@H](c3cc(OC)c(OC)c(OC)c3)[C@H]3C(=O)OC[C@@H]32)OCO4)c2cc(OC)c(OC)c(OC)c2)ccc1O [Compound 3a] , melting point observed: 134 to 137 °C

compound COc1cc(/C=C(/C(=O)N[C@@H]2c3cc4c(cc3[C@@H](c3cc(OC)c(OC)c(OC)c3)[C@H]3C(=O)OC[C@@H]32)OCO4)c2cc(OC)c(OC)c(OC)c2)ccc1F [Compound 3c] , melting point observed: 144 to 146 °C

###

# System: Colo205
# assay-comment: SRB assay, colon cancer cell line Colo205
# Assay type: cell-based
# recorded-conditions: Homo sapiens, COLO 205, 48 h, read-out: In vitro anticancer activity GI50, Colon Colo205
Can you tell me GI50 for the items I'm about to list?
Kindly provide the numeric value in nM only, without the unit symbol.

compound COc1ccc(/C=C(/C(=O)N[C@@H]2c3cc4c(cc3[C@@H](c3cc(OC)c(OC)c(OC)c3)[C@H]3C(=O)OC[C@@H]32)OCO4)c2cc(OC)c(OC)c(OC)c2)cc1[N+](=O)[O-] , GI50 observed: 2700

compound COc1cc(/C(=C\c2ccc(O)c([N+](=O)[O-])c2)C(=O)N[C@@H]2c3cc4c(cc3[C@@H](c3cc(OC)c(OC)c(OC)c3)[C@H]3C(=O)OC[C@@H]32)OCO4)cc(OC)c1OC , GI50 observed: 2000

compound COc1ccc(/C=C(/C(=O)N[C@@H]2c3cc4c(cc3[C@@H](c3cc(OC)c(OC)c(OC)c3)[C@H]3C(=O)OC[C@@H]32)OCO4)c2cc(OC)c(OC)c(OC)c2)cc1 , GI50 observed: 170

compound COc1cc(/C(=C\c2ccc([N+](=O)[O-])cc2)C(=O)N[C@@H]2c3cc4c(cc3[C@@H](c3cc(OC)c(OC)c(OC)c3)[C@H]3C(=O)OC[C@@H]32)OCO4)cc(OC)c1OC , GI50 observed: 2100

###

# Tested on: Hop62
# assay-comment: SRB assay, lung cancer cell line Hop62
# Format: cell-based
# recorded-conditions: Homo sapiens, HOP-62, 48 h, read-out: In vitro anticancer activity GI50, Lung Hop62
Can you tell me GI50 for the items I'm about to list?
Kindly provide the numeric value in nM only, without the unit symbol.

molecule COc1ccc(/C=C(/C(=O)N[C@@H]2c3cc4c(cc3[C@@H](c3cc(OC)c(OC)c(OC)c3)[C@H]3C(=O)OC[C@@H]32)OCO4)c2cc(OC)c(OC)c(OC)c2)cc1[N+](=O)[O-] , GI50 observed: 2300

molecule COc1cc(/C(=C\c2ccc(O)c([N+](=O)[O-])c2)C(=O)N[C@@H]2c3cc4c(cc3[C@@H](c3cc(OC)c(OC)c(OC)c3)[C@H]3C(=O)OC[C@@H]32)OCO4)cc(OC)c1OC , GI50 observed: 190

molecule COc1cccc(/C=C(/C(=O)N[C@@H]2c3cc4c(cc3[C@@H](c3cc(OC)c(OC)c(OC)c3)[C@H]3C(=O)OC[C@@H]32)OCO4)c2cc(OC)c(OC)c(OC)c2)c1 , GI50 observed: 180
